Biological target: Cathepsin B (Homo sapiens, UniProt P07858)
Assay: Irreversible inhibition of human Cathepsin B assessed as inhibition constant using Cbz-Phe-Arg-AMC as fluorogenic substrate by fluorometric assay
compounds and their reported Ki
Kindly answer with a numeric value in µM, unit omitted.

QUERY: Item under review: O=C(NCc1ccccc1C(=O)N[C@H](/C=C/S(=O)(=O)Oc1ccccc1)CCc1ccccc1)c1ccc2c(c1)OCCO2 . Reported Ki?
RESULT: 0.8

QUERY: Entry to check: O=C(NCc1ccccc1C(=O)N[C@H](/C=C/S(=O)(=O)c1ccccc1)CCc1ccccc1)c1cc(F)cc(F)c1
RESULT: 3.04

QUERY: Next: O=C(NCc1ccccc1C(=O)N[C@H](/C=C/S(=O)(=O)c1ccccc1)CCc1ccccc1)c1ccccc1
RESULT: 1.98

QUERY: Would you kindly repeat that for O=C(NCc1ccccc1C(=O)N[C@H](/C=C/S(=O)(=O)Oc1ccccc1)CCc1ccccc1)c1ccncc1 ?
RESULT: 1.01

// moving on: another record for Ki
QUERY: Sample O=C(NCc1ccccc1C(=O)N[C@H](/C=C/S(=O)(=O)Oc1ccccc1)CCc1ccccc1)c1cc(F)cc(F)c1 — what was its Ki?
RESULT: 0.76

====

Target: Rhodesain (Trypanosoma brucei rhodesiense) (UniProt Q95PM0)
Sequence (Q95PM0 1-450): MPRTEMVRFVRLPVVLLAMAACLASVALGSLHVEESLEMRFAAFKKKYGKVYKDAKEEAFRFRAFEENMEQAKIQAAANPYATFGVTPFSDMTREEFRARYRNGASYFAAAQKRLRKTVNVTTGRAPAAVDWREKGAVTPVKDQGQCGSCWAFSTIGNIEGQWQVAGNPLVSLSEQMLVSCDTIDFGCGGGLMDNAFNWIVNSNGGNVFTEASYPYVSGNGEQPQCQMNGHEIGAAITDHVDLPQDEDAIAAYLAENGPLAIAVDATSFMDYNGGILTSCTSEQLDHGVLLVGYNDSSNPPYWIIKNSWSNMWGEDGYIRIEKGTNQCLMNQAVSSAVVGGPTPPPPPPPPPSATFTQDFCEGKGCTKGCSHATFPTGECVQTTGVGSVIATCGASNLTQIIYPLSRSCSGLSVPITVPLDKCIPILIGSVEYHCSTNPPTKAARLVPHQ
Experiment: Irreversible inhibition of Trypanosoma brucei rhodesiense rhodesain assessed as second order rate constant using Cbz-Phe-Arg-AMC as fluorogenic substrate by fluorometric assay
Property Label: Second-order inactivation rate constant (kinact/Ki)

# example entries with known answers
QUERY: Entry under review: O=C(NCc1ccccc1C(=O)N[C@H](/C=C/S(=O)(=O)Cc1ccccc1)CCc1ccccc1)c1cc(F)cc(F)c1 . Reported Second-order inactivation rate constant (kinact/Ki)?
RESULT: 0.35 10^5/M/s

QUERY: And what about the compound O=C(NCc1ccccc1C(=O)N[C@H](/C=C/S(=O)(=O)c1ccccc1)CCc1ccccc1)c1cc(F)cc(F)c1 ?
RESULT: 1.59 10^5/M/s

QUERY: Consider next the compound CN1CCN(C(=O)NCc2ccccc2C(=O)N[C@H](/C=C/S(=O)(=O)Cc2ccccc2)CCc2ccccc2)CC1 in the same way.
RESULT: 0.16 10^5/M/s

QUERY: Check O=C(NCc1ccccc1C(=O)N[C@H](/C=C/S(=O)(=O)Oc1ccccc1)CCc1ccccc1)c1ccc2c(c1)OCCO2 too.
RESULT: 7.9 10^5/M/s

QUERY: Ok, now O=C(O)c1ccc(C(=O)NCc2ccccc2C(=O)N[C@H](/C=C/S(=O)(=O)c2ccccc2)CCc2ccccc2)cc1
RESULT: 0.0077 10^5/M/s

QUERY: Same question for O=C(NCc1ccccc1C(=O)N[C@H](/C=C/S(=O)(=O)c1ccccc1)CCc1ccccc1)c1ccncc1 please.
RESULT: 0.43 10^5/M/s

***
QUERY: Value lookup for Second-order inactivation rate constant (kinact/Ki); key = O=C(NCc1ccccc1C(=O)N[C@H](/C=C/S(=O)(=O)Cc1ccccc1)CCc1ccccc1)c1ccncc1
RESULT: 0.14 10^5/M/s

QUERY: And what about the compound O=C(NCc1ccccc1C(=O)N[C@H](/C=C/S(=O)(=O)Oc1ccccc1)CCc1ccccc1)c1cc(F)cc(F)c1 ?
RESULT: 7.8 10^5/M/s

====

Target: Procathepsin L (Homo sapiens, UniProt P07711)
Sequence (P07711 whole entry): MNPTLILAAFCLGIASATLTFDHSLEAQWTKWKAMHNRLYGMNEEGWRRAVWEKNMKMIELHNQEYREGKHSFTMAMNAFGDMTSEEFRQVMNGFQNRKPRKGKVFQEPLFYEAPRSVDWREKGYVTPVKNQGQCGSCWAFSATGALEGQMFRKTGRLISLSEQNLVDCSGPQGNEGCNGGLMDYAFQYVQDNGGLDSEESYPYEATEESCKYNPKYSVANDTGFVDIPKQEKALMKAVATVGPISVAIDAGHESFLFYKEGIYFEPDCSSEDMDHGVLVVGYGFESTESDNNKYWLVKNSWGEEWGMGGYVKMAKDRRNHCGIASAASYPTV
Assay: Irreversible inhibition of human Cathepsin L assessed as inhibition constant using Cbz-Phe-Arg-AMC as fluorogenic substrate by fluorometric assay
We begin with a simple list: items and their reported pKi.
In simple prose, pKi is minus the logarithm base ten of a concentration in moles per litre.

Field: example entries. Status: answers known.
QUERY: Could you share what pKi was measured for O=C(NCc1ccccc1C(=O)N[C@H](/C=C/S(=O)(=O)Oc1ccccc1)CCc1ccccc1)c1ccncc1 , tested on Procathepsin L (Homo sapiens, UniProt P07711)?
RESULT: 5.94

QUERY: Now this one: O=C(NCc1ccccc1C(=O)N[C@H](/C=C/S(=O)(=O)c1ccccc1)CCc1ccccc1)c1ccncc1
RESULT: 5.65

QUERY: Request: O=C(NCc1ccccc1C(=O)N[C@H](/C=C/S(=O)(=O)Oc1ccccc1)CCc1ccccc1)c1cc(F)cc(F)c1
RESULT: 6.25

QUERY: Also, O=C(NCc1ccccc1C(=O)N[C@H](/C=C/S(=O)(=O)Oc1ccccc1)CCc1ccccc1)c1ccc2c(c1)OCCO2 please.
RESULT: 6.51

QUERY: Moving on to O=C(NCc1ccccc1C(=O)N[C@H](/C=C/S(=O)(=O)c1ccccc1)CCc1ccccc1)c1cc(F)cc(F)c1
RESULT: 5.72

QUERY: Continue with O=C(NCc1ccccc1C(=O)N[C@H](/C=C(\F)S(=O)(=O)c1ccccc1)CCc1ccccc1)c1ccncc1
RESULT: 4.85

QUERY: Next up: O=C(NCc1ccccc1C(=O)N[C@H](/C=C/S(=O)(=O)c1ccccc1)CCc1ccccc1)c1ccccc1
RESULT: 5.83

Shift focus to the following entry.
QUERY: Given the entry O=C(NCc1ccccc1C(=O)N[C@H](/C=C(\F)S(=O)(=O)c1ccccc1)CCc1ccccc1)c1ccccc1 , what pKi was observed with Procathepsin L (Homo sapiens, UniProt P07711)?
RESULT: 5.06

Cited source for all entries: ChEMBL document CHEMBL5113413
